Sourced from patent US20240150377A1

targetEntity: CFTR (Homo sapiens, UniProt P13569, DEL508-508)
Construct: endogenous in cells; host or cells: primary human bronchial epithelial cells from CF subjects (F508del/MF-HBE), differentiated at air-liquid interface
Sequence (P13569 with tags, fused parts or gaps DEL508-508): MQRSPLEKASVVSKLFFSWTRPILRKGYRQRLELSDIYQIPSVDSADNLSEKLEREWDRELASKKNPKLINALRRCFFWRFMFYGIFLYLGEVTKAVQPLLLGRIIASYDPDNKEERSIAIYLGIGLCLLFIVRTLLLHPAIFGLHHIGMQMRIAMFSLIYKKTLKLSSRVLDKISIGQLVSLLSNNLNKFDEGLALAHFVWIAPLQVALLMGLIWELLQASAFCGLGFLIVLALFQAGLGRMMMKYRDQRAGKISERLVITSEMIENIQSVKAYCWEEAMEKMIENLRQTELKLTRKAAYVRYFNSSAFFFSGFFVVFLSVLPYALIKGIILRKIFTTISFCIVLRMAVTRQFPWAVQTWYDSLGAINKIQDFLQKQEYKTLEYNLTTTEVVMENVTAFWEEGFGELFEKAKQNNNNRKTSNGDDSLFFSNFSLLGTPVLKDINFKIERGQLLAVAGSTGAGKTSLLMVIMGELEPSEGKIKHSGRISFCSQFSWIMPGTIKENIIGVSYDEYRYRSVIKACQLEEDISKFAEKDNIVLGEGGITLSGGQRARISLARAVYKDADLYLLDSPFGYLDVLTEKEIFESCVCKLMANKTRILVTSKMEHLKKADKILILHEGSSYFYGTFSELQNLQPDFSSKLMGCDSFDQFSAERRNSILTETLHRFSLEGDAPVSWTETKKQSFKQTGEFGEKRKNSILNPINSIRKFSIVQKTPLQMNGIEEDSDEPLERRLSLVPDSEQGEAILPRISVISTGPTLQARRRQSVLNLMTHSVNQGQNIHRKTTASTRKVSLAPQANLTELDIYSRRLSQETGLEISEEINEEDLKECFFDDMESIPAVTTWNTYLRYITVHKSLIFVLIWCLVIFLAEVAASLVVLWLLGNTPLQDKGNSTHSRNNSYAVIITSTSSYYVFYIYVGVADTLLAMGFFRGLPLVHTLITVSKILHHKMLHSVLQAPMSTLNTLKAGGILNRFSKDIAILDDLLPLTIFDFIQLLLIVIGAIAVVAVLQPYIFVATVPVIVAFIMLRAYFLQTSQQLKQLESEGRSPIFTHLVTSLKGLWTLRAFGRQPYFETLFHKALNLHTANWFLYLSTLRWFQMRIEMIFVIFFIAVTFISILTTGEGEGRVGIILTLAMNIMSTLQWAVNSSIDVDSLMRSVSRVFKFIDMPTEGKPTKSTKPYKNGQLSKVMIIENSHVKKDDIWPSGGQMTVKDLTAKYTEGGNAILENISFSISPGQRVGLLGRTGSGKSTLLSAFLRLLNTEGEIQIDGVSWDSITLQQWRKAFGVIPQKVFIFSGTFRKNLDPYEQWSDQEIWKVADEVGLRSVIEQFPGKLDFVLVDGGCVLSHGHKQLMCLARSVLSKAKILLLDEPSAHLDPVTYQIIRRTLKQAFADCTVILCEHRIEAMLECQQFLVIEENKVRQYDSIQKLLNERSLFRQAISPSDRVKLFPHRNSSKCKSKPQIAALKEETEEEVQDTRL
experimentNotes: HBE assay: Ussing chamber assay of CFTR-mediated short-circuit currents
Format: cell-based
conditionContext: HBE EC50 (μM), Table 10
parameterMeasured: EC50

GET /value?item= `Cc1cccc(C)c1-c1cc2nc(n1)NS(=O)(=O)c1cccc(c1)C(=O)N(Cc1cccc(Oc3ccccc3)n1)[C@H](CC(C)(C)C)CO2` &field=EC50 returns < 1 µM

GET /value?item= Cc1cccc(C)c1-c1cc2nc(n1)NS(=O)(=O)c1cccc(c1)C(=O)N(CC1CC(N3C[C@@H](C)O[C@@H](C)C3)C1)[C@H](CC(C)(C)C)CO2 (single isomer, unassigned) &field=EC50 returns < 1 µM
